Study system: pooled human IgG (human IgG1, 2, 3 and 4)
Observed property: Enzyme Activity Endpoint Assay (purified): Fc (ng/µL)
Please state the figure in ng/µL; there is no need to write the unit.

PRT-642 (protein) MQITSVWTKGVTPLTPEQFRYNNEDVIHAPYLAHQGWYDITKTFNRGDNLLCGAATAGNMLHWWFDQNKTEIEAYLSKHPEKQKIIFNNQELFDLKAAIDTKDSQTNSQLFNYFRDKAFPNLSARQGGVMPDLVLDMFINGYYLNVFKTQSTDVNRPYQDKDKRGGIFDAVFTRGDQTTLLTARHDLKNKGLNDISTIIKQELTEGRALALSHTYANVSISHVINLWGADFNAEGNLEAIYVTDSDADEKIGMKKYFVGINAHGHVAISAKKIEGENIGAQVLGLFTLSSGKDIWQKLSLEHHHHHH :: 260

# input for lookup
Enzyme Activity Endpoint Assay (purified): Fc reading for PRT-428 (protein) MTITSVWTKGVTPPTPEDFRYNNEDVLHAPYVANQGWYDITKTFDGKDNLLCGAATAGNMLHWWFDQNKEEIERYLKKHPEKQKIIFNNQELFDVKAAIDTKDSQTNSKLFNYFRDKAFPNLSARQLGVMPDLVLDMFINGYYLNLGKTQSTDVNRPYQDKDKRGGIFDAVFTRGDQTTLLTARHDLKNKGLNEISDLIKQELTEGKALALSHTYANVRINHVINLWGADFDAEGNLIAIYVTDSDTNASIGMKKYFVGVNANGKVAISAKKIEGDNIGAQVLGLFTLSTGQDIWQKLS : 336
